Test system: K562 cells
Experiment summary: Cell penetration of NBD-labelled peptides by flow cytometry (FACS)
Format: cell-based
Test context: Time 10 min, NBD-labelled peptide 1 μM, 37° C.
Measured property: penetration (mean fluorescent intensity)

Examples with answers:
Substance	Measured property	Reported measurement
R L R W R L R Y R F (RLRWRLRYRF) [SM4291]	penetration (mean fluorescent intensity)	99
R L R W R L R L R F (RLRWRLRLRF) [SM4292]	penetration (mean fluorescent intensity)	140
R G G R L S Y S R R R F S T S T G R (RGGRLSYSRRRFSTSTGR) [SynB1, reference compound]	penetration (mean fluorescent intensity)	7
R R L W R L Y R R F (RRLWRLYRRF) [SM4289]	penetration (mean fluorescent intensity)	80

// moving on: another record for penetration (mean fluorescent intensity)
penetration (mean fluorescent intensity) reported for this substance RKLWYLRKRF [SM4293] : 23

* * *

System: K562 cells
Experiment summary: Cell penetration of NBD-labelled peptides by flow cytometry (FACS)
Format: cell-based
Test context: Time 10 min, NBD-labelled peptide 1 μM, 37° C.
Measured property: penetration (mean fluorescent intensity)
In your answer, state the number alone without any accompanying words.

Examples with answers:
Substance	Measured property	Reported measurement
R G G R L V Y V R R R W V V V V G R (RGGRLVYVRRRWVVVVGR) [SM3980]	penetration (mean fluorescent intensity)	42
R R L W Y L R R R F (RRLWYLRRRF) [SM4287]	penetration (mean fluorescent intensity)	34
R R L W L L R R R F (RRLWLLRRRF) [SM4288]	penetration (mean fluorescent intensity)	38

penetration (mean fluorescent intensity) reported for this substance R R L W R L L R R F (RRLWRLLRRF) [SM4290] : 168

penetration (mean fluorescent intensity) reported for this substance R G G R L A Y L R R R W A V L V G R (RGGRLAYLRRRWAVLVGR) [SM3979] : 95

* * *

Catalogue of penetration (mean fluorescent intensity) values
System: K562 cells
Experiment summary: Cell penetration of NBD-labelled peptides by flow cytometry (FACS)
Type: cell-based
Test context: Time 60 min, NBD-labelled peptide 1 μM, 37° C.
In your answer, state the number alone without any accompanying words.

Substance	Measured on	Reported measurement
R R L W R L Y R R F (RRLWRLYRRF) [SM4289]	K562 cells	135
R G G R L A Y L R R R W A V L V G R (RGGRLAYLRRRWAVLVGR) [SM3979]	K562 cells	114
R R L W R L L R R F (RRLWRLLRRF) [SM4290]	K562 cells	371

// moving on: another record for penetration (mean fluorescent intensity)
penetration (mean fluorescent intensity) reported for this substance RKLWYLRKRF [SM4293] : 31
